Data origin, for the record: PubChem BioAssay

Test: reducers of endogenous Her2 protein level, primary screen, SKBR3 breast tumor cells, AlphaScreen, ATP viability (AID 461);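 note: percent of carrier control wells set as 100% viability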
Conditions: 18-24 h, measured here: SKBR3 viability, ATP luminescence, at 10 µM
Criterion: viability strictly under 90%. Met: yes. Not met: no.

Data request: Quick check: does COc1ccccc1-c1nnc(SCc2ccccn2)n1C have viability under 90%?
Data returned: no

Data request: Then what about the compound COc1ccc(CC(=O)OCc2nnc(C3COc4ccccc4O3)o2)cc1OC (stereo unspecified) ?
Data returned: no

Data request: How about this compound: COC(=O)c1cc(NC(=O)C2CC=CCC2C(=O)O)cc(C(=O)OC)c1 (stereo unspecified)
Data returned: no

Data request: Next: COc1ccc(C)cc1NCc1cccc(OC)c1OC
Data returned: yes

Data request: Can you check Cc1[nH]c(=O)[nH]c(=O)c1S(=O)(=O)N1CCCC(C(=O)NCc2ccco2)C1 (stereo unspecified) next?
Data returned: no

Data request: Same for CCNC(=O)CC1C(=O)N(c2ccc(F)cc2)C(=O)N1CCC(C)C (stereo unspecified)
Data returned: no

Data request: Would you kindly repeat that for Cc1occc1-c1nnc(SCC(=O)N2CCc3ccccc32)o1 ?
Data returned: no

Data request: And the next one, O=S(=O)(NCC1CCCO1)c1cccc(C(F)(F)F)c1 (stereo unspecified) ?
Data returned: no

Data request: // same read-out, input: CCOP(=O)(c1ccc(N(C)C)cc1)C(O)c1cc(OC)c(OC)c(OC)c1 (stereo unspecified)
Data returned: yes

Data request: Next entry: COc1ccccc1OCC(=O)NCC1CCCCC1
Data returned: no

====

Assay: reversal of MRP1-mediated doxorubicin resistance, pilot screen, H69AR cells, doxorubicin co-treatment (AID 601)
Conditions: H69AR cells, CellTiter-Glo, 72 h; compound alone cytotoxicity; at 10 µM
Experimental Endpoint: viability (%)
Supply the numeric figure in %, leaving out any unit text.

Data request: What value of viability has been recorded for this entry: CCOC(=O)CSC1=Nc2ccccc2C2=NC(CC(=O)NCc3ccc(OC)cc3)C(=O)N12 (stereo unspecified)
Data returned: 99.7

Data request: Also need O=C(O)c1cc2nc(-c3ccc(F)cc3)cc(C(F)(F)F)n2n1 , thanks.
Data returned: 93.2

Data request: Another: CCCC(C)c1nnc(NC(=O)C2CCCO2)s1 (stereo unspecified)
Data returned: 93.9

Data request: What would you report for COc1ccccc1C(=O)n1nc(-c2ccc(Cl)cc2)nc1N ?
Data returned: 71.2

Data request: Also, CCNC(=O)CC1C(=O)N(c2ccc(F)cc2)C(=O)N1CCC(C)C (stereo unspecified) please.
Data returned: 92.9

Data request: Now consider O=C(CSCc1cccc(F)c1)N1CCN(c2ccccc2)CC1 and answer again.
Data returned: 101

====

Assay: growth inhibitors of H69AR lung tumor, primary screen, human, duplicate replicates (AID 580);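 note: 100% = mean luminescence of untreated wells and 0% = no signal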
Settings: H69AR lung tumor cells viability, ATP luminescence, 72 h; at 10 µM; stronger effect = lower value
Decide using viability alone. Strictly below 90%: yes. Equal to or above 90%: no.

Data request: Is the reported viability for COc1ccc(NC(=O)CC2Oc3ccccc3NC2=O)cc1 (configuration not stated) strictly below 90%?
Data returned: no

Data request: What about this compound? CN(C(=O)c1cc2sccc2n1C)C1CCCCC1
Data returned: no

Data request: Note, next up: COc1ccccc1NC(=O)C1=C(C)Nc2nnnn2C1c1ccccc1OC (configuration not stated)
Data returned: no

Data request: Try this compound too: Cc1cc(Nc2ccc(N3CCC(C)CC3)cc2)n2ncnc2n1
Data returned: yes

Data request: Same read-out for CC(=O)c1cccc(NC(=O)N2CCCC2C(=O)NCc2ccc(C)cc2)c1 (configuration not stated) ?
Data returned: no

Data request: Please answer likewise for CCOc1ccc(C2CC(c3cccc(C)c3)n3ncnc3N2)cc1 (configuration not stated)
Data returned: no

Data request: Also check Cc1ccc(S(=O)(=O)N2CCN(C(=O)CN3C(=O)NC4(CCOc5ccccc54)C3=O)CC2)cc1 (configuration not stated)
Data returned: no

Data request: What would you report for Cc1cc2c(c(=O)n1CCc1ccccc1)C(C(C)C)C(C#N)=C(N)O2 (configuration not stated) ?
Data returned: yes

Data request: Same question for CC1CN(C(=O)CSc2nnc(-c3ccncc3)n2-c2ccccc2)CC(C)O1 (configuration not stated) please.
Data returned: no

Data request: Same thing, different compound: O=S1(=O)CC(N2CCCCC2)C(N2CCCCC2)C1 (configuration not stated)
Data returned: no

Data request: Subsequent entry: CCOC(=O)c1[nH]cc(-c2ccccc2)c1N1CCOCC1
Data returned: no

Data request: Further, for CCn1c(=O)cc(SCC(=O)N2CCN(C3CCCCC3)CC2)c2ccccc21 ?
Data returned: yes

Data request: What do you have for O=S(=O)(c1cccc(-c2nnco2)c1)N1CCCC1 ?
Data returned: no

Data request: Request: O=C(NCCN1CCOCC1)c1ccc2c(c1)N(Cc1ccccc1)C(=O)CS2
Data returned: no

Data request: Input CCCOc1cccc(-c2nnc(N)s2)c1
Data returned: no

Data request: Also check Cc1ccc(CNC(=O)COC(=O)c2c(C)noc2C)cc1
Data returned: no

Data request: Then what about the compound COc1ccc(C(=O)OCC(=O)NCc2ccco2)cc1OC ?
Data returned: yes

Data request: Same question for Cc1ccc2c(c1)NC(=O)C(CC(=O)NC1CCCCC1C)O2 (configuration not stated) please.
Data returned: no

Data request: Likewise for O=C(O)c1c(Cl)c(Cl)c(Cl)c(Cl)c1C(=O)N1CCOCC1 ?
Data returned: no

Data request: And COC(=O)c1ccc(NC(=O)Cn2nnc3ccccc32)cc1 ?
Data returned: no

Data request: Follow-up item: Cn1c(=O)c2c(nc(NCCCO)n2CCc2ccccc2)n(C)c1=O
Data returned: yes

Data request: // repeat for COC(=O)CCC(=O)Nc1cccc(Cl)c1 and report
Data returned: yes

Data request: Quick one: CN(c1ccccc1)S(=O)(=O)c1ccc(C(=O)OCC(=O)N2CCOCC2)cc1
Data returned: no

Data request: Let us now turn to CCCCCc1c(O)nc(SCC(=O)NCC2CCCO2)[nH]c1=O (configuration not stated)
Data returned: no

Data request: Please answer likewise for C/C(N)=C(/C#N)C(=O)CSc1nnc(Nc2cccc(C)c2)s1
Data returned: yes

Data request: Another compound: O=C(Nc1cccc(Cl)c1)N1CCN(c2ncccn2)CC1
Data returned: no

Data request: Query Cc1nc2sc(C(c3ccc(Br)cc3)N3CC(C)OC(C)C3)c(O)n2n1 (configuration not stated) next
Data returned: no

Data request: How about CCOc1ccccc1NC(=O)N1CCCC1C(=O)Nc1nnc(CC)s1 (configuration not stated) ?
Data returned: no

Data request: Another compound to look at: O=C(CN1C(=O)CCSc2ccccc21)Nc1ccc(F)cc1
Data returned: no

Data request: Try this compound too: COc1cccc(C(=O)N2CCCC(c3nc(-c4cccs4)no3)C2)c1 (configuration not stated)
Data returned: no

Data request: Please give the result for Fc1ccc(Cn2nnc(-c3ccc(CN4CCOCC4)cc3)n2)cc1 too.
Data returned: no
